- System: human erythrocytes
- assay explanation: Hemolysis of red blood cells
- condition info: human erythrocytes, 0.5% v/v RBC suspension in PBS, peptide 150 μM, 37 °C, 1 h, absorbance 414 nm, melittin positive control, triplicate
Where a SMILES comes first, the peptide text is derived from it. [ ]: non-standard residue; d: D form. The star is where a group is joined. Bip = N[C@@H](Cc1ccc(-c2ccccc2)cc1)C(=O)O; 2Nal = N[C@@H](Cc1ccc2ccccc2c1)C(=O)O; Octanoyl = CCCCCCCC(=O)*; Dab = NCC[C@H](N)C(=O)O; Hexanoyl = CCCCCC(=O)*; AEEA = NCCOCCOCC(=O)O; Butyryl = CCCC(=O)*
Provide the reported %H, percent hemolytic activity against red blood cells at 150 μM of each item.
Note: unit % is implicit; provide only the numeric part.

Query: Query %H, percent hemolytic activity against red blood cells at 150 μM for CCCC(=O)NCC[C@@H]1NC(=O)[C@H](CCN)NC(=O)[C@H](CCCNC(=N)N)NC(=O)[C@H](Cc2ccc3ccccc3c2)NC(=O)[C@H](CCN)NC(=O)[C@H](CC(N)=O)NC(=O)[C@H](CCN)NC(=O)[C@H](Cc2ccc3ccccc3c2)NC(=O)COCCOCCNC1=O [(C4)^5] (cyclo([Dab][2Nal]R[Dab][Dab](Butyryl)[AEEA][2Nal][Dab]N))
Result: 5

Query: Query %H, percent hemolytic activity against red blood cells at 150 μM for N=C(N)NCCC[C@@H]1NC(=O)[C@H](Cc2ccc3ccccc3c2)NC(=O)[C@H](CCN)NC(=O)[C@H](CC(N)=O)NC(=O)[C@H](CCN)NC(=O)[C@H](Cc2ccc3ccccc3c2)NC(=O)COCCOCCNC(=O)[C@H](Cc2ccc(-c3ccccc3)cc2)NC(=O)[C@H](CCN)NC1=O [S3(B)] (cyclo([Dab][2Nal]R[Dab][Bip][AEEA][2Nal][Dab]N))
Result: 77

Query: Query %H, percent hemolytic activity against red blood cells at 150 μM for CCCCCCCC(=O)NCC[C@@H]1NC(=O)[C@H](CCN)NC(=O)[C@H](CCCNC(=N)N)NC(=O)[C@H](Cc2ccc3ccccc3c2)NC(=O)[C@H](CCN)NC(=O)[C@H](CC(N)=O)NC(=O)[C@H](CCN)NC(=O)[C@H](Cc2ccc3ccccc3c2)NC(=O)COCCOCCNC1=O [(C8)^5] (cyclo([Dab][2Nal]R[Dab][Dab](Octanoyl)[AEEA][2Nal][Dab]N))
Result: 42

Query: Query %H, percent hemolytic activity against red blood cells at 150 μM for CCCCCC(=O)NCC[C@@H]1NC(=O)[C@H](CCN)NC(=O)[C@H](CCCNC(=N)N)NC(=O)[C@H](Cc2ccc3ccccc3c2)NC(=O)[C@H](CCN)NC(=O)[C@H](CC(N)=O)NC(=O)[C@H](CCN)NC(=O)[C@H](Cc2ccc3ccccc3c2)NC(=O)COCCOCCNC1=O [(C6)^5] (cyclo([Dab][2Nal]R[Dab][Dab](Hexanoyl)[AEEA][2Nal][Dab]N))
Result: 13

# credit: paper PMC7461568
